System: ragweed (common ragweed, Ambrosia elatior)
Experiment: Test A preemergence, visual injury rating 0-100
Format: in vivo
Conditions: 31 g ai/ha, 0 to 100 scale (0 no effect, 100 complete control), approx. 10 days
Assign Ragweed plant response rating to each entry below.
Give bare numbers.

compound | Ragweed plant response rating
CC1=[N+]([O-])[C@@H](C(=O)Nc2cccc(F)c2F)[C@H](c2cccc(Oc3ncc(F)cc3F)c2)C1 | 0
CC1=[N+]([O-])[C@@H](C(=O)Nc2cccc(F)c2F)[C@H](c2cccc(C(F)(F)F)c2)C1 | 0
CC1=[N+]([O-])[C@H](C(=O)Nc2cccc(F)c2F)[C@@H](c2ccc(C(F)(F)F)cc2)C1 | 30
CC1=[N+]([O-])C(C(=O)Nc2cccc(F)c2F)C(c2ccc(F)c(Oc3ccc(F)cn3)c2)C1 (racemic) | 0
CC1=[N+]([O-])C(C(=O)Nc2cccc(F)c2F)C(c2ccc(F)cc2)C1 (racemic) | 0
CC1=[N+]([O-])[C@H](C(=O)Nc2cccc(F)c2F)[C@@H](c2ccc(C)cc2)C1 | 0

Now let's try a different one.
Data request: Provide Ragweed plant response rating, tested on ragweed (common ragweed, Ambrosia elatior), for CC1=[N+]([O-])[C@@H](C(=O)Nc2cccc(F)c2F)[C@H](c2cccc(OC(C)(C)C)c2)C1 .
Data returned: 0

---

Test system: corn (Zea mays)
Assay: Test A postemergence, visual injury rating 0-100
Assay type: in vivo
Conditions: 500 g ai/ha, 0 to 100 scale
Where Corn plant response rating equals or exceeds 20, the correct label is condition met; where it does not, the label is condition not met.

compound | cat
CC1=[N+]([O-])C(C(=O)Nc2cccc(F)c2F)C(c2ccccc2)C1 (stereo not drawn) [Compound 97] | condition not met

Data request: Record O=C(Nc1cccc(F)c1F)C1C(c2ccccc2)CC(C(F)(F)F)=[N+]1[O-] (racemic) ; criterion: Corn plant response rating no lower than 20. Met?
Data returned: condition not met

Data request: Quick check: does CC1=[N+]([O-])C(C(=O)Nc2cccc(F)c2F)C(c2ccc(C)c(Br)c2)C1 (racemic) have Corn plant response rating greater than or equal to 20?
Data returned: condition met

Data request: // inclusive: Corn plant response rating at least 20? input: CC1=[N+]([O-])C(C(=O)Nc2cccc(C#N)c2F)C(c2ccc(C(F)(F)F)cc2)C1 (racemic)
Data returned: condition not met

Data request: Can CC1=[N+]([O-])C(C(=O)Nc2cccc(F)c2F)C(c2ccc(C)c(C(F)(F)F)c2)C1 (racemic) be said to have Corn plant response rating at or above 20?
Data returned: condition met

Data request: For this compound, is measured Corn plant response rating 20 or higher? CC1=[N+]([O-])C(C(=O)Nc2cccc(F)c2F)C(c2cccc(C(C)C)c2)C1 (racemic)
Data returned: condition met

Data request: Can CC1=[N+]([O-])C(C(=O)Nc2cccc(F)c2F)C(c2cc(C)cc(C)c2)C1 (racemic) be said to have Corn plant response rating at or above 20?
Data returned: condition met

Data request: Check if Corn plant response rating >= 20 (inclusive). Item: COc1cc(C)cc(C2CC(C)=[N+]([O-])C2C(=O)Nc2cccc(F)c2F)c1 (stereo not drawn)
Data returned: condition met

---

Give measured Pigweed plant response rating (0 to 100 scale) for each item. Keep answers brief.
Tested on: pigweed (Amaranthus retroflexus)
Test: Test A preemergence, visual injury rating 0-100
Format: in vivo
Conditions: 500 g ai/ha
Answers are plain numbers.

Worked set:
compound | value-observed
CC1=[N+]([O-])C(C(=O)Nc2cccc(F)c2F)C(c2cc(C)cc(CF)c2)C1 (racemic) [Compound 108] | 70
CC1=[N+]([O-])C(C(=O)Nc2cccc(F)c2F)C(c2cc(C)cc(Cl)c2)C1 (stereo not drawn) [Compound 94] | 80
CC1=[N+]([O-])C(C(=O)Nc2cccc(F)c2F)C(c2ccc(C(F)(F)F)nc2)C1 (racemic) [Compound 60] | 80
CC1=[N+]([O-])C(C(=O)Nc2cccc(F)c2F)C(c2ccccc2)C1 (stereo not drawn) [Compound 97] | 60
CC1=[N+]([O-])C(C(=O)Nc2cccc(F)c2F)C(c2cccc(Cl)n2)C1 (stereo not drawn) [Compound 89] | 0
CC1=[N+]([O-])C(C(=O)Nc2cccc(F)c2F)C(c2ccc(C(F)(F)F)c(Br)c2)C1 (racemic) [Compound 73] | 70

Please supply Pigweed plant response rating (0 to 100 scale) for each of the following items, keeping them in order.
1. CC1=[N+]([O-])C(C(=O)Nc2cccc(F)c2F)C(c2cc(F)c(C(F)(F)F)c(F)c2)C1 (racemic) [Compound 114]
2. CC1=[N+]([O-])C(C(=O)Nc2cccc(F)c2F)C(c2ccc(Br)cn2)C1 (racemic) [Compound 66]
3. CC1=[N+]([O-])C(C(=O)Nc2cccc(F)c2F)C(c2ccc(F)c(Oc3ncc(F)cn3)c2)C1 (racemic) [Compound 52]
4. CC1=[N+]([O-])C(C(=O)Nc2cccc(F)c2F)C(c2cccc(C(F)(F)F)c2C)C1 (racemic) [Compound 106]
5. CC1=[N+]([O-])C(C(=O)Nc2ccccc2[S+](C)[O-])C(c2ccc(C(F)(F)F)cc2)C1 (racemic) [Compound 44]
6. CC1=[N+]([O-])C(C(=O)Nc2cccc(F)c2F)C(c2cccc(C)n2)C1 (racemic) [Compound 49]
7. CC1=[N+]([O-])C(C(=O)Nc2cccc(F)c2F)C(c2ccc(=O)n(Cc3ccc(Cl)cc3)c2)C1 (racemic) [Compound 119]
8. CC1=[N+]([O-])C(C(=O)Nc2cccc(F)c2Cl)C(c2ccc(C(F)(F)F)cc2)C1 (racemic) [Compound 31]

Data returned:
[80, 0, 70, 60, 90, 0, 0, 60]

Data request: Please indicate Pigweed plant response rating (0 to 100 scale) recorded for CC1=[N+]([O-])C(C(=O)Nc2cccc(F)c2F)C(c2ccc(F)cc2Oc2ncc(F)cn2)C1 (racemic) [Compound 68]
Data returned: 0
